Measurement Notes: In vivo pharmacokinetics in male C57BL/6 mice (IV and PO)
Condition Parameters: male, C57BL/6, plasma; mouse, IV, 5 mg/kg; read-out: Vss
Experimental: Example 26: In Vivo Assessment of the Pharmacokinetics in Mice and Rats […] Male C57BL/6 mice (25-30 g) from Charles River Labs were acclimatized for a minimum of 5 days prior to dosing. Body weights will be recorded on the day of dosing. Animals dosed p.o. were deprived of food overnight and fed ˜2 h following dosing. Formulations were administered intravenously (i.v.) via the tail vein or orally (p.o.) by gavage with disposable feeding needles. Serial blood samples were collected via tail snip. […]
Readout: Vd (L/kg)
Write the number in L/kg without appending the unit.

What does the record list as Vd for "[2H]C([2H])([2H])N1CCC[C@@H]1Cc1c[nH]c2cccc(O)c12" ?
15.3

###

Measurement Notes: In vivo pharmacokinetics in male SD rats (IV and PO)
Condition Parameters: male, SD, plasma; rat, PO, 3 mg/kg; read-out: F (bioavailability)
Readout: bioavailability (%)
Report the value in % with no unit label.

* [2H]C([2H])([2H])N1CCC[C@@H]1Cc1c[nH]c2cccc(O)c12 | 146
* [2H]C([2H])(c1c[nH]c2cccc(OC)c12)[C@H]1CCCN1C([2H])([2H])[2H] | 19.6

Now let's try a different one.
Would you kindly share the measured bioavailability for "[2H]C([2H])(c1c[nH]c2cccc(O)c12)[C@H]1CCCN1C([2H])([2H])[2H]" ?
144

###

Measurement Notes: In vivo pharmacokinetics in male SD rats (IV and PO)
Condition Parameters: male, SD, plasma; rat, PO, 3 mg/kg; read-out: Apparent t1/2 (converted)
half-life: recorded values
Number in h, nothing else.

Previously resolved entries follow.
- [2H]C([2H])(c1c[nH]c2cccc(OC)c12)[C@H]1CCCN1C([2H])([2H])[2H]: 1.48
- [2H]C([2H])(c1c[nH]c2cccc(O)c12)[C@H]1CCCN1C([2H])([2H])[2H]: 3.25

Record request: half-life value, item "[2H]C([2H])([2H])N1CCC[C@@H]1Cc1c[nH]c2cccc(O)c12"
2.69

###

Measurement Notes: In vivo pharmacokinetics in male SD rats (IV and PO)
Condition Parameters: male, SD, plasma; rat, IV, 0.3 mg/kg; read-out: AUC0-tlast
Readout: AUC(0-t) (ng·h/mL)
Use ng·h/mL as the unit, but write only the number.

Here is how some compounds turned out for AUC(0-t).
* [2H]C([2H])(c1c[nH]c2cccc(O)c12)[C@H]1CCCN1C([2H])([2H])[2H] | 26.4
* [2H]C([2H])([2H])N1CCC[C@@H]1Cc1c[nH]c2cccc(O)c12 | 27.6

Now, please, on to the next compound.
Any idea what AUC(0-t) was measured for "[2H]C([2H])(c1c[nH]c2cccc(OC)c12)[C@H]1CCCN1C([2H])([2H])[2H]" ?
25.9

###

Measurement Notes: In vivo pharmacokinetics in male SD rats (IV and PO)
Condition Parameters: male, SD, plasma; rat, IV, 0.3 mg/kg; read-out: MRT0-inf
The compounds listed here are annotated with their MRT inf.
The reply should be a number in min, with the unit left off.

The cases that follow already have their MRT inf on record.
- [2H]C([2H])([2H])N1CCC[C@@H]1Cc1c[nH]c2cccc(O)c12: 36.5
- [2H]C([2H])(c1c[nH]c2cccc(O)c12)[C@H]1CCCN1C([2H])([2H])[2H]: 31.7

Query compound follows.
# MRT inf lookup, item "[2H]C([2H])(c1c[nH]c2cccc(OC)c12)[C@H]1CCCN1C([2H])([2H])[2H]"
52.9
